# target: UniProt P13866
# Sequence (P13866 whole entry): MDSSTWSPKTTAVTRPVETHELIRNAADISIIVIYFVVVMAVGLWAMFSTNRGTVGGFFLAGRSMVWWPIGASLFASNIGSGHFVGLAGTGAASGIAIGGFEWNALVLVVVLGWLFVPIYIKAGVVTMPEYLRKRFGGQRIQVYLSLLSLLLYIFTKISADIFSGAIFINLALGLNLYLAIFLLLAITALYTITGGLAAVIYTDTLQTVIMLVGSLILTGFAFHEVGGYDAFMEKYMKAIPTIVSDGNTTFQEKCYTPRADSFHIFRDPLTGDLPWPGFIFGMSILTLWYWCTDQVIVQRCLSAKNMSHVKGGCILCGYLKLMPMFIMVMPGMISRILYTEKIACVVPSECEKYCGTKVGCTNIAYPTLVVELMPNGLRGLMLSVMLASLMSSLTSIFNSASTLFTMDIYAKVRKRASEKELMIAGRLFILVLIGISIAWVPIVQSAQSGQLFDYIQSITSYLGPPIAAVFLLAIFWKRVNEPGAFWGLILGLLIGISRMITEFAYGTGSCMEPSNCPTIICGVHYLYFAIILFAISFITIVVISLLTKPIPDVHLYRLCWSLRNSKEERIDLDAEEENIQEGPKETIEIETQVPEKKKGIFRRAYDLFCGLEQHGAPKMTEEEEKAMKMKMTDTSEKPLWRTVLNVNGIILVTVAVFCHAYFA
# method notes: Glucose transport inhibitor cell screening assay, 5 mM D-glucose for 15 minutes
# condition label: Caco-2, read-out: % Glucose transport inhibiton 5 mM
parameter: inhibition at 300 µM (%)

In [3]: df
Out[3]:
                                   molecule          target  unit_spec  endpoint_value
0  COc1c(O[C@@H]2O[C@H](CO)[C@@H](O)[C@H](O)[C@H]2O)cc2occ(-c3ccc(O)cc3)c(=O)c2c1O [Tectoridin]  UniProt P13866          %            29.4
1  Cc1c(O)c(C)c2c(c1O)C(=O)[C@H](Cc1ccc3c(c1)OCO3)CO2 [MOA, methylophiopogonanone A]  UniProt P13866          %            39.3
2  Cc1c(O)cc2c(c1O)C(=O)C(Cc1ccc(O)cc1)CO2 (stereo not drawn) [EA1]  UniProt P13866          %            90.7
3  Cc1c(O)c(C)c2c(c1O)C(=O)C(Cc1ccc(O)cc1)CO2 (stereo not drawn) [EA3]  UniProt P13866          %            91.2
4  COc1c(O)c(C)c(O)c2c1OCC(Cc1ccc(O)cc1)C2=O (stereo not drawn) [EA2]  UniProt P13866          %            89.9
5  COc1ccc(C[C@@H]2COc3c(C)c(O)c(C)c(O)c3C2=O)cc1 [MOB, methylophiopogonanone B]  UniProt P13866          %            46.2
